- System: 171881-019-R-J1-PDC tumor spheroids, viability;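 further: spheroids exposed to compounds for 7 days; 100% = DMSO vehicle control viability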
- RUN DESCRIPTION: Anticancer human tumor 171881-019-R-J1-PDC patient-derived invasive breast carcinoma cell line growth inhibition [GQUAD]
- CONDITION PARAMETERS: second compound 0.316 µM; first compound 0.0316 µM; stronger effect = lower value; spheroids with HUVEC and MSC
MEASUREMENT NAME: viability, T/C (%)

* Cc1[nH]c2ccccc2c1CCNCc1ccc(/C=C/C(=O)NO)cc1 + CN(C)c1ccc(Nc2c3ccc(NC(=O)CCN4CCCC4)cc3nc3cc(NC(=O)CCN4CCCC4)ccc23)cc1 | 28
* CC1COCCN1c1cc(C2(S(C)(=N)=O)CC2)nc(-c2ccnc3[nH]ccc23)n1 (stereo not drawn) + CN(C)c1ccc(Nc2c3ccc(NC(=O)CCN4CCCC4)cc3nc3cc(NC(=O)CCN4CCCC4)ccc23)cc1 | 77.7
* CC(C)n1c(=O)n(C)c2cnc3cc(F)c(-c4ccc(OCCCN5CCCCC5)nc4)cc3c21 + Cc1cnc(CNC(=O)c2c(=O)c3ccc(N4CCCN(C)CC4)nc3n3c2sc2ccccc23)cn1 | 66.6
